system: Vero E6 infected with SARS-CoV-2; assay: inhibition of SARS-CoV-2 cytopathic effect; higher = more antiviral protection, active = above 15; conditions: 100 nM; 48 h
Recorded inhibition of SARS-CoV-2 cytopathic effect, one value per entry.
Give the value in % but do not write % after it.

Record excerpt, results attached:
CC(=O)C1=C(O)[C@@H]2[C@H]3c4c[nH]c5cccc(c45)C[C@H]3C(C)(C)N2C1=O [cyclopiazonic-acid] :: 2
CCOC(=O)c1ccccc1OC(N)=O [ethyl-2-(carbamoyloxy)benzoate] :: -4.5
CCCCCCCCCCC(CO)CCCCCCCC (centres undefined) [2-octyldodecan-1-ol] :: 0.48
CC12CCC(C(Br)C1=O)C2(C)C (centres undefined) [3-bromocamphor] :: -0.16

Asked: Need inhibition of SARS-CoV-2 cytopathic effect of O=C1O[C@H]([C@@H](O)CO)C(O)=C1O , thanks.
Given back: -1.22

Asked: Need inhibition of SARS-CoV-2 cytopathic effect of C#C[C@]1(O)CC[C@H]2[C@@H]3CCc4cc(OC)ccc4[C@H]3CC[C@@]21C [mestranol] , thanks.
Given back: 0.83

Asked: Need inhibition of SARS-CoV-2 cytopathic effect of CNS(=O)(=O)Nc1nccc(Cc2c(C)c3ccc(Oc4ncccn4)cc3oc2=O)c1F , thanks.
Given back: -10.4

Asked: Need inhibition of SARS-CoV-2 cytopathic effect of COc1cc(O)c(C(=O)c2ccccc2)cc1S(=O)(=O)O [sulisobenzone] , thanks.
Given back: -0.05

Asked: Need inhibition of SARS-CoV-2 cytopathic effect of NS(=O)(=O)NCCNc1nonc1/C(=N/O)Nc1ccc(F)c(Br)c1 , thanks.
Given back: -3.11

Asked: Need inhibition of SARS-CoV-2 cytopathic effect of N[C@@H](C(=O)O)c1nn[nH]n1 (racemic) [tetrazol-5-yl-glycine-(RS)] , thanks.
Given back: 0.87

Asked: Need inhibition of SARS-CoV-2 cytopathic effect of C=C1/C(=C\C=C2/CCC[C@]3(C)[C@@H]([C@H](C)CC[C@@H](O)C(C)C)CC[C@@H]23)C[C@@H](O)C[C@@H]1O [tacalcitol] , thanks.
Given back: 1.63

Asked: Need inhibition of SARS-CoV-2 cytopathic effect of N#C/C(=C\c1ccc(O)c(O)c1)C(=O)NCCCCc1ccccc1 , thanks.
Given back: 1.91

Asked: Need inhibition of SARS-CoV-2 cytopathic effect of CN(C(=O)Cc1ccccc1)[C@H](CN1CCCC1)c1ccccc1 , thanks.
Given back: 0.52

Asked: Need inhibition of SARS-CoV-2 cytopathic effect of Cc1nc2c(c(=O)[nH]1)CSCC2 , thanks.
Given back: 0.46

Asked: Need inhibition of SARS-CoV-2 cytopathic effect of O=NO [sodium-nitrite] , thanks.
Given back: 3.46

Asked: Need inhibition of SARS-CoV-2 cytopathic effect of CCNC(=O)C#Cc1ccc2c(C(=Nc3ccc(CN(C)C)cc3)c3ccccc3)c(O)[nH]c2c1 , thanks.
Given back: -4.45

Asked: Need inhibition of SARS-CoV-2 cytopathic effect of COc1ccc(OC)c([C@@H](O)CNC(=O)CN)c1 [midodrine] , thanks.
Given back: -1.42

Asked: Need inhibition of SARS-CoV-2 cytopathic effect of CC(C)N(CCNC(=O)CN1CCCC1=O)C(C)C [pramiracetam] , thanks.
Given back: 0.57

Asked: Need inhibition of SARS-CoV-2 cytopathic effect of CCCN(CCC)C(=O)C(CCC(=O)OCCCN1CCN(CCOC(=O)Cc2c(C)n(C(=O)c3ccc(Cl)cc3)c3ccc(OC)cc23)CC1)NC(=O)c1ccccc1 (centres undefined) [proglumetacin] , thanks.
Given back: -2.86

Asked: Need inhibition of SARS-CoV-2 cytopathic effect of C#Cc1cccc(Nc2ncnc3cc(OCCOC)c(OCCOC)cc23)c1 [erlotinib] , thanks.
Given back: -1.96

Asked: Need inhibition of SARS-CoV-2 cytopathic effect of N#Cc1c(N)nc(SCC(N)=O)c(C#N)c1-c1ccc(OCC2CC2)cc1 , thanks.
Given back: 2.51

Cited source: the supplement of paper PMC13380429
